FYI, the data here is from paper PMC8389037.

As shown below, each of these compounds has a reported Minimum inhibitory concentration (MIC) value.
Tested on: C. auris 918
Assay: microbe, parasite or virus in culture
Conditions: 918, 48 h
Procedure: The in vitro antifungal activities of the target peptides were evaluated according to protocols from the CLSI. The broth microdilution method was used to determine the minimum inhibitory concentration (MIC) of the target peptides in 96-well plates. Fluconazole was used as a reference drug. […]
Where a SMILES comes first, the peptide text is derived from it. Bridges are numbered along the chain shown (N, C = ends). [ ]: non-standard residue; d: D form. S5 = C=CCCC[C@](C)(N)C(=O)O
recorded endpoint: Minimum inhibitory concentration (MIC)

{"columns": ["compound", "recorded endpoint", "result"],
 "data": [
  ["CC[C@H](C)[C@H](NC(=O)[C@H](CCCCN)NC(=O)[C@H](CCCCN)NC(=O)[C@@H](NC(=O)[C@]1(C)CCCC=CCCC[C@](C)(NC(C)=O)C(=O)N[C@@H](CC(C)C)C(=O)N[C@@H](Cc2ccccc2)C(=O)N[C@@H](CC(=O)O)C(=O)N1)[C@@H](C)CC)C(=O)N[C@@H](C)C(=O)N[C@@H](CCC(=O)O)C(=O)N[C@@H](CO)C(=O)N[C@@H](Cc1ccccc1)C(N)=O [Sau-1] (Ac-[S5]LFD[S5]IKKIAESF-NH2; staple 1-5)", "Minimum inhibitory concentration (MIC)", ">128 µg/mL"],
  ["CC[C@H](C)[C@H](NC(=O)[C@H](CCCCN)NC(=O)[C@H](CCCCN)NC(=O)[C@]1(C)CCCC=CCCC[C@](C)(NC(=O)CNC(C)=O)C(=O)N[C@@H](Cc2ccccc2)C(=O)N[C@@H](CC(=O)O)C(=O)N[C@@H]([C@@H](C)CC)C(=O)N1)C(=O)N[C@@H](C)C(=O)N[C@@H](CCC(=O)O)C(=O)N[C@@H](CO)C(=O)N[C@@H](Cc1ccccc1)C(N)=O [Sau-2] (Ac-G[S5]FDI[S5]KKIAESF-NH2; staple 2-6)", "Minimum inhibitory concentration (MIC)", ">128 µg/mL"]
]}
